Organism: Mus musculus
protocol text: Anticonvulsant activity in mice, measured by maximal electroshock seizure (MES) test.
Type: functional
API: label(entry) gives true (1) if the entry's ED50 is strictly smaller than 90 mg/kg; on equality or larger values it gives false (0).

>  <molecule>
FC(F)(F)c1cccc(N2N=NCC2c2ccncc2)c1 (stereo unspecified)

>  <label value>
true (1)

$$$$
>  <molecule>
Clc1ccc(N2N=NCC2c2ccncc2)cc1 (stereo unspecified)

>  <label value>
false (0)

$$$$
>  <molecule>
CCCC(CCC)C(=O)O [VALPROIC ACID]

>  <label value>
false (0)

$$$$
>  <molecule>
c1ccc(N2N=NCC2c2ccncc2)cc1 (stereo unspecified)

>  <label value>
false (0)

$$$$
>  <molecule>
Brc1ccc(-n2nncc2-c2ccccn2)cc1

>  <label value>
true (1)

$$$$

A record lists Clc1ccc(-n2nncc2-c2ccccn2)cc1 . Is its ED50 below 90 mg/kg? false (0)

Input c1ccc(-n2nncc2-c2ccccn2)cc1 true (1)

Input c1ccc(-n2nncc2-c2cccnc2)cc1 true (1)

Input c1ccc(-n2nncc2-c2ccncc2)cc1 true (1)

Input FC(F)(F)c1ccc(N2N=NCC2c2ccncc2)cc1 (stereo unspecified) false (0)

Input Clc1ccc(-n2nncc2-c2ccccc2)cc1 false (0)

Input FC(F)(F)c1cccc(-n2nncc2-c2ccncc2)c1 true (1)

Input Fc1ccc(-n2nncc2-c2cccnc2)cc1 true (1)

Input Clc1cccc(-n2nncc2-c2ccncc2)c1 true (1)

Input COc1ccc(-n2nncc2-c2ccncc2)cc1 false (0)

Input Fc1ccc(-n2nncc2-c2ccccn2)cc1F true (1)

Input Brc1ccc(-n2nncc2-c2cccnc2)cc1 true (1)

Input Fc1ccc(N2N=NCC2c2ccncc2)cc1 (stereo unspecified) false (0)

Input Clc1ccc(-n2nncc2-c2cccnc2)cc1 true (1)
